tested on: A549 (human non-small lung cell); assay: SRB assay, in vitro antitumor effect against human tumor cell lines; format: cell-based; settings: 48 hours
Parameter: ED50. Scope: all listed entries.
Give your result in µg/mL as a bare value.

Some molecules with known ED50 results, for comparison:
molecule	target.under.test	ED50 [µg/mL]
N.N.[Cl][Pt][Cl] [Cisplatin, cisplatin, reference compound]	A549 (human non-small lung cell)	0.81
CCc1nc(OC)c(NC(=O)N2CCN(c3cc(OC)cc(OC)c3)CC2)cc1C(=O)NC(C)C(=O)Nc1cc(CO)cc(Nc2c3ccccc3nc3ccccc23)c1 (stereo not drawn)	A549 (human non-small lung cell)	0.12
CCc1nc(OC)c(NC(=O)N2CCN(c3cc(C)cc(C)c3)CC2)cc1C(=O)NC(C)C(=O)Nc1cc(CO)cc(Nc2c3ccccc3nc3c(C)c(C)ccc23)c1 (stereo not drawn)	A549 (human non-small lung cell)	0.08
CCc1nc(OC)c(NC(=O)N2CCN(c3cc(C)cc(C)c3)CC2)cc1C(=O)NC(C)C(=O)Nc1cc(CO)cc(Nc2c3ccccc3nc3ccccc23)c1 (stereo not drawn)	A549 (human non-small lung cell)	0.12
CCc1nc(OC)c(NC(=O)N2CCN(c3cc(C)cc(C)c3)CC2)cc1C(=O)Nc1cc(CO)cc(Nc2c3ccccc3nc3ccccc23)c1	A549 (human non-small lung cell)	0.21

Next molecule, ED50 to be filled in.
Query string: Looking for the measured ED50 of CCCc1nc(OC)c(NC(=O)N2CCN(c3cc(OC)cc(OC)c3)CC2)cc1C(=O)NC(C)C(=O)Nc1cc(CO)cc(Nc2c3ccccc3nc3ccccc23)c1 (stereo not drawn) , can you help?
Result string: 0.24
